Assay: protein stability index of a GFP-peptide fusion (GPS, HEK-293T) (PSI 1-6); higher = more stable;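 further: 24-mer peptide tiles fused after GFP, lentivirally expressed, FACS-sorted into six equal bins by GFP/DsRed ratio, decoded by Illumina sequencing, PSI is the read-weighted mean bin number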
Settings: treatment: MLN4924 1 uM, 8 h; c terminus: a fixed tail appended
property: protein stability index
Give only the figure.

Example results:
Need protein stability index of QTRMAVSLTAAETLALQGTQGQEK [ZNF232] , thanks.
4.98

Now this one: NREHLVMMEKILGPIPSHMIHRTR [CLK3]
2.89

Now this one: QLSELRSEMECQNQEYKMLLDIKT [KRT13]
4

Now this one: DWGTPRELTFSYIAFDGVVGSGGR [RTN2]
2.43

Now this one: EQLERINDALSCEYECRRRMLMKR [FAM98B]
3.14

---
Need protein stability index of LQMEFKAVQQVQRLPFLSSSNLSL [POMP] , thanks.
2.16

Now this one: WNVAAPLYLKQSDLASAAAKQIME [INTS4]
2.81

Now this one: EFMLLPANQLIDIISSDELNVRSE [KLHL20]
3.38

Now this one: AQEQLRPQTPEPVEGRKHVDVQTE [RSPH3]
5.34

Now this one: TGESKEQVANSAFVERVRKRGFEV [HSP90AB1]
4.26

Now this one: RLHLAFKRQVPTEQARAYAEKNCM [RAB40C]
3.1

Now this one: VQVPEAWEELLTMKVEAKSHLQWQ [ZSCAN9]
2.54

Now this one: DVADDFENYHKLRRSSSKCIHDHH [NETO1]
4.15

Now this one: RFVPSNPIGILTTSYCELLQNKVP [PPTC7]
2.51

Now this one: LLPESGIVADIELENVLDPDSFYE [TFE3]
4.76

Now this one: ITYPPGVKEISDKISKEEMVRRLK [PDS5B]
3.73

Now this one: SRELASMNLDIVDLLKKAKFHHSD [RHOBTB3]
3.09

Now this one: EHIKSLLIKNNSLPRKRQSLRSSS [INTS3]
3.38

Now this one: FKPKNEEPYGHLNPKWTKWLQKLC [PI4K2A]
2.79

Now this one: VCALSALPAGPLPAPLLVLCPSRA [PLEKHN1]
2.18

Now this one: SAQNGLASSLPAEVHSLTLSPPEQ [PLAGL1]
5.03

Now this one: EETEVLAHEIERLQMEMKEDDVSF [TRIM35]
5.48

Now this one: NHIGMGVRYNAEKKKVGNYYTTPI [YJU2B]
3.27

Now this one: EELSVLEVFEGREDSILGDPKKLL [MAGEA3]
4.75

Now this one: PTHTPRPADFSLGSLPGPGQTSGA [VENTX]
4.5

Now this one: PPVPCVPSVPCTPAPQVGTQIRTI [KRT36]
4.31

Now this one: WRKRFTEQPITDFCSVIRINSTAP [ZNF277]
2.23

* * *

Test: protein stability index of a GFP-peptide fusion (GPS, HEK-293T) (PSI 1-6); higher = more stable
Conditions: treatment: MLN4924 1 uM, 8 h; c terminus: native
Everything with protein stability index lower than 3 is criterion not met; everything else, including exactly 3, is criterion met.

The following sequences have reported results that may help.
Is the recorded value of protein stability index equal to or greater than 3 for this sequence? EEFIEEEDQEEEESTEGKEEGHQ [TRIM63]
criterion met

Now this one: LLTLLPQLQEAWQQRTPSPVPGG [RSAD1]
criterion not met

Now this one: EVLAQPQGALAPPNCESDSKTGV [DNAAF3]
criterion met

Now this one: EPELSPAYLISEAMRRSRMSLYC [GFOD1]
criterion not met

Now this one: KVLNMWCCCFFKRRKRKTIQRHK [CSNK1G3]
criterion not met

---
Is the recorded value of protein stability index equal to or greater than 3 for this sequence? AAVPDEIPPLEGDEDASRMEEVD [HSP90AB1]
criterion met

Now this one: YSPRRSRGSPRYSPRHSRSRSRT [SRSF1]
criterion met

Now this one: NSPSSPSSSAASSSSPSSSSAVV [RHOBTB2]
criterion met
